Give GI50 for every item shown.
# Test system: UO-31
# assay-comment: NCI tumour cell line growth inhibition, 48 h
Activity calls are given as the source filed them. Cut-off read from the data, not from the text of the source: active = GI50 up to about 1.1 µM and inactive = higher.

Check out these entries, answers already filled in.
1. CCC(C)C1NC(=O)CNC(=O)C2Cc3c([nH]c4cc(O)ccc34)[S+]([O-])CC(NC(=O)CNC1=O)C(=O)NC(CC(=O)O)C(=O)N1CC(O)CC1C(=O)NC(C(C)C(O)CO)C(=O)N2 (stereo unspecified)    1.55 µM (inactive)
2. COC(=O)c1nc(-c2nc(CCNC(=O)OC(C)(C)C)sc2Cl)sc1Cl    89.7 µM (inactive)
3. COC1(OC)CC(CO)(CNc2nc(N)nc(Cl)c2C=O)C1    60.1 µM (inactive)
4. O=c1c(C(c2cccnc2)c2c(O)oc3cc(O)ccc3c2=O)c(O)oc2cc(O)ccc12    > 100 µM (inactive)
5. Cc1ccc(S(=O)(=O)NC(=O)NCC(=O)O)cc1    > 100 µM (inactive)

Alright, here's another compound for you.
Exercise: Consider the compound CCC(c1nc2ccccc2c(=O)n1NC(=O)C(C)(C)C)C1(O)CCCCC1 (stereo unspecified) and give its measured GI50.
Key: > 100 µM (inactive)

====

# Tested on: UACC-257
# assay-comment: NCI tumour cell line growth inhibition, 48 h
Active and inactive are the calls of the source. Cut-off read from the data, not from the text of the source: active = GI50 up to about 1.1 µM and inactive = higher.
Can you answer with just one of these options? 1 (yes) = active, 0 (no) = inactive

Solved cases (5 shown):
1) O=C(O)CCCNS(=O)(=O)c1ccc2ccccc2c1    0 (no)
2) CC(C)(C)C(=O)CC1(O)C=C(O)C(O)(CC(=O)C(C)(C)C)O1 (centres undefined)    0 (no)
3) Nc1ncnc2c1ncn2CCCCC(=O)O    0 (no)
4) Cc1[nH]c2ccccc2c1C1Cc2ccccc2N1C(=O)C#Cc1ccc([N+](=O)[O-])cc1 (centres undefined)    0 (no)
5) O=C1OCc2nc3c(c(-c4ccccc4C(F)(F)F)c21)C(=O)OC3    0 (no)

Exercise: Which outcome was entered for the molecule `O=C(OCc1ccccc1)N1CCNCCN(C(=O)OCc2ccccc2)CCNCC1` in this test?
Key: 0 (no)

Exercise: Repeat with `CO[C@]12C[C@H](CNC(=O)c3cc(Br)c(Br)[nH]3)O[C@H]1NC(=O)N2`
Key: 0 (no)

Exercise: Repeat with CC(C)NC(=O)OCc1nnn2c1C(OC(=O)NC(C)C)CC2 (centres undefined)
Key: 0 (no)

====

# System: DU-145
# assay-comment: NCI tumour cell line growth inhibition, 48 h
Active and inactive are the calls of the source. Rule as the data show it: active = GI50 up to about 1.1 µM and inactive = higher.
Can you answer with just one of these options? active, inactive

Solved cases (3 shown):
1) CSc1cc(Cl)c(C)cc1S(=O)(=O)NC(=O)NNc1cccc(C(F)(F)F)n1    inactive
2) COc1ccc(NC2Oc3cc4c(cc3C(c3cc(OC)c(OC)c(OC)c3)C2C)OCO4)cc1 (stereo not given)    active
3) COc1cc2c(cc1OC)C13CCN4CC5=CCOC6CC(=O)N2C1C6C5CC43O (stereo not given)    inactive

Exercise: Which outcome was entered for the molecule COC(=O)CN(CC1O[C@@H]2OC(C)(C)O[C@@H]2C1NC(C)=O)C(=O)OCc1ccccc1 (stereo not given in full) in this test?
Key: inactive

Exercise: Repeat with CC1OC(OC2CC(O)(C(=O)CO)Cc3c(O)c4c(c(O)c32)C(=O)c2ccccc2C4=O)CC(N)C1O (stereo not given)
Key: active
